The measured values listed here are drawn from patent US20230117034A1.

# Target or test system: CDK12 (nuclear staining in CAL-120 cells) (Homo sapiens)
# Construct: endogenous in cells; host or cells: CAL-120 human breast cancer cells (DSMZ ACC 459)
# Sequence (Q9NYV4 whole entry): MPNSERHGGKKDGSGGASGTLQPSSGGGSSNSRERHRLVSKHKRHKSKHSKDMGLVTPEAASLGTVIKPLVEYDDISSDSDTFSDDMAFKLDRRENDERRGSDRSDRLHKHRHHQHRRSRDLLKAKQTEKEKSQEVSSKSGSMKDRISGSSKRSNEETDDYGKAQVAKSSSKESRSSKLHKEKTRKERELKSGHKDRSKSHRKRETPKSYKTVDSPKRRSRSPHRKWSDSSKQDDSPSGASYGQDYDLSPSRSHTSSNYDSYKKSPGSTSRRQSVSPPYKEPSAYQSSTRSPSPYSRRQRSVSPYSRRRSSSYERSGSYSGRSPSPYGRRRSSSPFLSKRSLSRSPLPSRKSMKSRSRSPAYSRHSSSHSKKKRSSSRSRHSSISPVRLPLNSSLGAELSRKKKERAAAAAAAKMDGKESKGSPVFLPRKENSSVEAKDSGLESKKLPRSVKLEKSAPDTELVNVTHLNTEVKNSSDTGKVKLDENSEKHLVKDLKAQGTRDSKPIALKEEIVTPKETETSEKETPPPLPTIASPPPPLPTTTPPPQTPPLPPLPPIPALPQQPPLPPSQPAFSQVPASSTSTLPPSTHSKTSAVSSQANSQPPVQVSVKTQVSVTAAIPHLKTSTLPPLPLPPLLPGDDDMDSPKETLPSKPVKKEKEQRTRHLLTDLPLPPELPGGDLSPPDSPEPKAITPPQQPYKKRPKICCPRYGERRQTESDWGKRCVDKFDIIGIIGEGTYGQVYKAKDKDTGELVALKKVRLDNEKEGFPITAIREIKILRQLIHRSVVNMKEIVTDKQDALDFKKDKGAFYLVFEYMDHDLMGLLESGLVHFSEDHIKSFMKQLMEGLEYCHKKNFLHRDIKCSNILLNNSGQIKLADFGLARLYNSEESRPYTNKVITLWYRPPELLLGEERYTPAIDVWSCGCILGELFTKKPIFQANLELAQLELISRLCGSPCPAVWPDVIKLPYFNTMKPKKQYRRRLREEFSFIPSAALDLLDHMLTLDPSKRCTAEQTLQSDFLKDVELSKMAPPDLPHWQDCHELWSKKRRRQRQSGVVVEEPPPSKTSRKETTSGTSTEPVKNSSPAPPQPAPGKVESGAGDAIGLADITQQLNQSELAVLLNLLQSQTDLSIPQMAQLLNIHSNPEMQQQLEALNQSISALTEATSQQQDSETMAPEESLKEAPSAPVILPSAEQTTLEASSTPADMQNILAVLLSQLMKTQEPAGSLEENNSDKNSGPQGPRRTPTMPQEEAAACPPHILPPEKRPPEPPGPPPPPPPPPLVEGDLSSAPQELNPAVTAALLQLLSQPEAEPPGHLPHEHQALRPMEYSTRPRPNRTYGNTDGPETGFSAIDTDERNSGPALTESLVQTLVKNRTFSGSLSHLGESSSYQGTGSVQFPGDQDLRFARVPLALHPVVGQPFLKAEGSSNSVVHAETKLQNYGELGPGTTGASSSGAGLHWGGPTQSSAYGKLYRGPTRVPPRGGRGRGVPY
# Sequence (O75909 whole entry partner): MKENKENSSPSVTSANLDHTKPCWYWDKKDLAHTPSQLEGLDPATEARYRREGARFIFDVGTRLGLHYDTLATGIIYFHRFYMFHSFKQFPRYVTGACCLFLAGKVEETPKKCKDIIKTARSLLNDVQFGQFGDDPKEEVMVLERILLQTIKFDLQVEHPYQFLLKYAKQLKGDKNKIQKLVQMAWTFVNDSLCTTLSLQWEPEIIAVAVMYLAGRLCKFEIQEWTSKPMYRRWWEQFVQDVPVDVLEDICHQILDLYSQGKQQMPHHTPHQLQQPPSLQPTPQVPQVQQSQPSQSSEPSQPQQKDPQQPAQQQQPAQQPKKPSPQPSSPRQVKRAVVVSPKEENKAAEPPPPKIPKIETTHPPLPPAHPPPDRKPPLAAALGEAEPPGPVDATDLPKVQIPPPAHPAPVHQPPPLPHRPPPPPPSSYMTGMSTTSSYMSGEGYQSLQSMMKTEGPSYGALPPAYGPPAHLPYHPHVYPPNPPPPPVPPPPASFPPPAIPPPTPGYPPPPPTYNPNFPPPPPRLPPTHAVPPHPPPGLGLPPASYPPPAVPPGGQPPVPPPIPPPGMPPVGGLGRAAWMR
# Assay remarks: CDK12 nuclear protein level: immunofluorescence/high content analysis (CAL-120)
# Format: cell-based
# Condition set: CAL-120 cells, 24 h, immunofluorescence; 50% reduction of nuclear CDK12 staining intensity; median; read-out: CDK12 degradation IF, DC50- [mol/l] (median)
Recorded metric: DC50 (nM)

Worked examples, 6 molecules total:
Fc1ccc2[nH]c(CNc3nc(N4CCOCC4)nc4c(C(F)(F)F)cnn34)nc2c1F	0.751
COc1cccc2[nH]c(CNc3nc(N4CCOCC4)nc4c(CC(F)(F)F)cnn34)nc12	4.48
Clc1ccccc1-c1cnc(CNc2nc(N3CCOCC3)nc3c(Br)cnn23)[nH]1	5.73
OC[C@@H]1CCCCN1c1nc(NCc2nc3cc(F)ccc3[nH]2)n2ncc(C3CC3)c2n1	0.606
Cc1ccc2[nH]c(CNc3nc(N4CCOCC4)nc4c(Br)cnn34)nc2c1	0.62
Cc1cnn2c(NCc3nc4c(F)c(F)ccc4[nH]3)nc(N(C)CC(C)(C)O)nc12	8

a = C[C@H]1CN(C)CCN1c1nc(NCc2nc3c(F)cccc3[nH]2)n2ncc(C(F)(F)F)c2n1
b = CN1CC2CCC1CN2c1nc(NCc2nc3ccccc3[nH]2)n2ncc(Br)c2n1 (centres unmarked)
Rank a against b by their DC50 values and give the higher one. Give the chosen item's label as your response.
a
(a: 10.4 nM, b: 4.68 nM)
